For each record, write down the corresponding GI50.
System: SF-295
Measurement description: NCI tumour cell line growth inhibition, 48 h
The source made the active and inactive calls. Cut-off read from the data, not from the text of the source: active = GI50 up to about 1.1 µM and inactive = higher.

Solved cases below.
Compound	System name	GI50
Cc1n[nH]c(=O)n1N=C(c1ccccc1)c1ccccc1	SF-295	> 100 µM (inactive)
COc1cccc(/C=C2\CCC(CCN(C)C)(C3=CCCC3)C2=O)c1 (stereo not given)	SF-295	17 µM (inactive)
Cc1ccc(S(=O)(=O)CC2CCCn3c2c(C#N)c2ccccc23)cc1 (stereo not given)	SF-295	> 100 µM (inactive)

Dear colleague, could you send me GI50 for each of the items below? Thanks.
1. C/C(=N\n1c(Cc2ccccc2)n[nH]c1=O)c1ccc([N+](=O)[O-])cc1
2. CCN(CC)c1ccc2c(c1)Oc1ccc(N(CC)CC)cc1C21Oc2ccccc2-c2c1c1ccccc1n2CC (stereo not given)
3. C/C(=N\NC(=S)Nc1ccc(C(=O)O)cc1)c1ccccn1
4. COC1OC(CO)C(O)C1N (stereo not given)
5. CC(C)COC(=O)N1N=NC2C3CC(=O)C(O3)C21 (stereo not given)
6. CCOC(=O)Nn1c(CC#N)nnc1Cc1ccccc1
7. Nc1ncn(C/C=C/c2ccccc2)c2ncnc1-2

result:
1: 91.8 µM (inactive); 2: 2.7 µM (inactive); 3: 40.4 µM (inactive); 4: > 100 µM (inactive); 5: > 100 µM (inactive); 6: > 100 µM (inactive); 7: > 100 µM (inactive)

====

System: M14
Measurement description: NCI tumour cell line growth inhibition, 48 h
Active and inactive are the calls of the source. No stated cut-off is given here; in the data, active = GI50 up to about 1.1 µM and inactive = higher.
Select the correct class. Options are active, inactive and nothing else.

Molecule	Discrete label
CC(C)(C)OC(=O)NCCC(=O)NC1(c2cc3ccccc3s2)CCCCC1	inactive

Now consider the entry below.
query: Could you kindly confirm the outcome this assay logged for "Cc1ccc(-c2cc(=O)c(=O)[nH][nH]2)cc1" ?
result: inactive

====

System: OVCAR-3
Measurement description: NCI tumour cell line growth inhibition, 48 h
Activity calls are given as the source filed them. Cut-off read from the data, not from the text of the source: active = GI50 up to about 1.1 µM and inactive = higher.
Select the correct class. Options are Y = active, N = inactive and nothing else.

Below, 6 compounds whose answers are already recorded.
Compound	Discrete label
CC12C(=O)OC(=O)C1(C)C1C=CC2O1 (stereo not drawn)	N
C=C1C[C@@H]2CC[C@@]34CC5O[C@H]6C(O[C@H]7CC[C@H](CC(=O)O[C@@H]8[C@@H](C)[C@@H]9O[C@@H]%10C[C@]%11(C[C@@H]%12O[C@]%13(C[C@H](C)[C@@H]%14O[C@@H]%15CC(C(COC(C)=O)OC(C)=O)O[C@@H]%15C[C@@H]%14O%13)C[C@H](C)[C@@H]%12O%11)O[C@@H]%10C[C@@H]9O[C@H]8CC8O[C@@H](CC[C@@H]1O2)C[C@@H](C)C8(O)CO)O[C@@H]7[C@@H]6O3)[C@H]5O4 (stereo partly drawn)	Y
C/C(=N/NC(=S)Nc1ccccc1Cl)c1ccccn1	Y
COc1ccc2nc3cc([N+](=O)[O-])ccc3c(Nc3ccc(S(=O)(=O)Nc4ncccn4)cc3)c2c1	N
COc1ccc(-n2nnc(C(N)=O)c2O)cc1	Y
CC1(C)CC[C@]2(C(=O)O)CC[C@]3(C)[C@H](C(=O)C=C4[C@@]5(C)C=C(C#N)C(=O)C(C)(C)[C@@H]5CC[C@]43C)[C@@H]2C1	Y

query: Could you kindly confirm the outcome this assay logged for "O=C(O[C@H]1CCN2C[C@H]3C[C@H](CN4C(=O)CCC[C@H]34)[C@@H]2C1)c1ccc(O)cc1" ?
result: N

query: Could you kindly confirm the outcome this assay logged for [C-]#[N+]C(C)(C)C[C@H]1CC(C)C2CCC(C)C3([N+]#[C-])CCC(=C)C1[C@H]23 (stereo partly drawn) ?
result: N

query: Could you kindly confirm the outcome this assay logged for "Cc1ccc(/C=C/C(=O)C(C)(C)CN2CCCCC2)cc1" ?
result: N

query: Could you kindly confirm the outcome this assay logged for "C=CCn1c(=O)ccn(/C(=C/C(=O)OCC)C(=O)OCC)c1=O" ?
result: N

query: Could you kindly confirm the outcome this assay logged for CC(C)(C)[Si](C)(C)OC1(CCc2ccccc2OS(=O)(=O)C(F)(F)F)CCCC=C1COCc1ccccc1 (stereo not drawn) ?
result: N

query: Could you kindly confirm the outcome this assay logged for "CC(C)(C)OC(=O)NCCC(=O)NC1(c2cc3ccccc3s2)CCCCC1" ?
result: N

query: Could you kindly confirm the outcome this assay logged for C=C1CC2CC[C@@]34C[C@H]5O[C@@H]6C(O[C@H]7CC[C@H](CC(=O)OC8[C@H](C)C9OC%10C[C@]%11(C[C@@H]%12O[C@]%13(C[C@H](C)[C@@H]%14O[C@H]([C@H](O)C[C@H](O)CO)C[C@@H]%14O%13)C[C@H](C)[C@@H]%12O%11)OC%10CC9O[C@H]8C[C@H]8O[C@H](CC[C@@H]1O2)C[C@@H](C)C8=C)O[C@H]7[C@@H]6O3)[C@@H]5O4 (stereo partly drawn) ?
result: Y

query: Could you kindly confirm the outcome this assay logged for CCN(CC)C1Oc2cc3c(cc2C(c2ccc(OC)cc2)C1C)OCO3 (stereo not drawn) ?
result: N

====

Test system: SF-539
Measurement description: NCI tumour cell line growth inhibition, 48 h
Activity calls are given as the source filed them. Rule as the data show it: active = GI50 up to about 1.1 µM and inactive = higher.
Observation type: GI50

Compound	System name	GI50
CC1(C)CC(=O)c2[nH]c3ccccc3c2CC(=O)NCCc2cn1cn2	SF-539	> 100 µM (inactive)
Nc1nc(Cl)c(N)c(NCC2(CO)CCCC2)n1	SF-539	> 100 µM (inactive)
NCc1ccc(-c2ccc(-c3ccc(-c4ccc(CN)s4)s3)s2)s1	SF-539	> 100 µM (inactive)
COc1cccc(/C=C2\CCC(CCN(C)C)(C3=CCCC3)C2=O)c1 (stereo not given)	SF-539	16.1 µM (inactive)
Cc1nc2ccccc2c(=O)n1NC(=S)Nc1ccc(Cl)cc1[N+](=O)[O-]	SF-539	> 100 µM (inactive)
COc1ccc(/C=C2\CCC(C)(CN(C)C)C2=O)cc1OC (stereo not given)	SF-539	> 100 µM (inactive)

Dear colleague, could you send me GI50 for each of the items below? Thanks.
1. CCCCCCCCCCCCC(=O)NCC(=O)NC(Cc1ccccc1)C(=O)Oc1ccc([N+](=O)[O-])cc1 (stereo not given)
2. O=C(CC(O)(C(F)(F)F)C(F)(F)F)C(c1ccccc1)C(O)(C(F)(F)F)C(F)(F)F (stereo not given)
3. CCOC(=O)NN(C(=O)OCC)c1c(C)cc(C)cc1C
4. Oc1ccc(I)c2cccnc12
5. CN1C=C(C(N)=O)Cc2ccsc21
6. COC(=O)c1ccccc1C1CN=NC12Cc1ccc(C)cc1C2=O (stereo not given)
7. CC(C)COC(=O)N1N=NC2C3CC(=O)C(O3)C21 (stereo not given)
8. S=P1(Oc2ccccc2)NNP2(=NP(N3CC3)(N3CC3)=NP(N3CC3)(N3CC3)=N2)NN1 (stereo not given)

result:
91.8 µM (inactive)
17.1 µM (inactive)
> 100 µM (inactive)
12.5 µM (inactive)
> 100 µM (inactive)
> 100 µM (inactive)
> 100 µM (inactive)
> 100 µM (inactive)

Dear colleague, could you send me GI50 for each of the items below? Thanks.
1. ClC[Si]12OCCN(CCO1)CCO2
2. Cc1ccc(NC(=O)C(=O)Cc2cc[n+]([O-])cc2)cc1
3. CC1(C)CC[C@]2(C(=O)O)CC[C@]3(C)[C@H](C(=O)C=C4[C@@]5(C)C=C(C#N)C(=O)C(C)(C)[C@@H]5CC[C@]43C)[C@@H]2C1 [BARDOXOLONE]
4. N#CC1=C(N2CCCC2)NC(=O)CC1=O

result:
["> 100 µM (inactive)", "> 100 µM (inactive)", "0.569 µM (active)", "> 100 µM (inactive)"]

Dear colleague, could you send me GI50 for each of the items below? Thanks.
1. Cn1c2ccccc2c2c3c(c4c5ccccc5n(C)c4c21)C(=O)c1ccccc1C3=O
2. O=c1c2cc([N+](=O)[O-])ccc2nc2n1CCCCC2

result:
["16.6 µM (inactive)", "> 100 µM (inactive)"]

Dear colleague, could you send me GI50 for each of the items below? Thanks.
1. COc1cc(OC)c2c(=O)c3c([N+](=O)[O-])cccc3n(C)c2c1
2. O=C1Nc2ccccc2C(=O)/C1=C/NC(=S)NC1CCCCC1
3. O=c1n(Cc2ccccc2)c2ccccc2n1CC1CS1 (stereo not given)
4. CC(Oc1ccccc1Cl)C(=O)NN1C(=O)CSC1c1ccccc1 (stereo not given)
5. CCOC(=O)C1(N)CCc2[nH][nH]c(=O)c2C1 (stereo not given)

result:
> 100 µM (inactive)
> 100 µM (inactive)
> 100 µM (inactive)
> 100 µM (inactive)
> 100 µM (inactive)

Dear colleague, could you send me GI50 for each of the items below? Thanks.
1. C=C(C)C(=O)OC1CC2=CC(CC3(C)OC3C3OC(=O)C(=C)C13)OC2=O (stereo not given)
2. O=C1N[C@H]2c3c(Cl)sc(Cl)c3/C(=N/O)[C@H]2O1
3. CC(C)(C)c1cc(Cc2ccc(S(C)(=O)=O)cc2)c(O)c(C(C)(C)C)c1
4. O=C1NCCCC12CCCNC2=O
5. CCOCN1COCN(C)C1=O

result:
1: 10.9 µM (inactive); 2: 88.1 µM (inactive); 3: 16.7 µM (inactive); 4: > 100 µM (inactive); 5: > 100 µM (inactive)

Dear colleague, could you send me GI50 for each of the items below? Thanks.
1. CC(=O)OC(C)(C)[C@H]1O[C@]23O[C@]1(C)C[C@@H](C)[C@@H]2[C@@]1(C)CC[C@@]24C[C@@]25CC[C@H](O[C@@H]2OC[C@@H](O)[C@H](O)[C@H]2O)C(C)(C)[C@@H]5CC[C@H]4[C@]1(C)[C@H]3O
2. O=[N+]([O-])c1ccc(/N=N/N2CCCC2)cc1

result:
1: 4.35 µM (inactive); 2: > 100 µM (inactive)

Dear colleague, could you send me GI50 for each of the items below? Thanks.
1. O=C1CCCC1NC(=O)C(F)(F)F (stereo not given)
2. N#Cc1nc(C#N)n(S(=O)(=O)c2ccccc2)c1NS(=O)(=O)c1ccccc1
3. CC1CCC[P+](Cc2ccccc2)(c2ccccc2)CC1 (stereo not given)
4. COc1ccc(N/N=C2\CCOc3ccc(C)cc3C2=O)cc1
5. COc1cc2c(cc1OC)C1=C(C=O)c3ccc(OC)c(OC)c3C(O)N1CC2 (stereo not given)

result:
1. > 100 µM (inactive)
2. > 100 µM (inactive)
3. 69.5 µM (inactive)
4. 40.6 µM (inactive)
5. 12.9 µM (inactive)

Dear colleague, could you send me GI50 for each of the items below? Thanks.
1. COc1c(OC/C=C(\C)CCC=C(C)C)ccc2ccc(=O)oc12 [COLLININ]
2. Cc1cs/c(=N/c2ccccc2)n1CCC(O)(P(=O)(O)O)P(=O)(O)O

result:
> 100 µM (inactive)
> 100 µM (inactive)

query: Suppose we examine the compound Fc1ccccc1C1SCC2=Nc3ccccc3CN21 (stereo not given) ; what GI50 value has been reported?
result: 94.8 µM (inactive)
